Data provenance: patent US20210277110A1

biological target: T1, Extracellular domain of human PD1 (huPD1-ECD) (human, UniProt Q15116 25-169, biotinylated in the ligand inhibition assay (sites not given)); assay: MSD ligand inhibition, competitor coated cynoPDL1-ECD
T1 construct: Expressed with a hexahistidine tag or as Fc fusion; also called biotinylated PD-1
T1 sequence (Q15116 25-169 limits assumed): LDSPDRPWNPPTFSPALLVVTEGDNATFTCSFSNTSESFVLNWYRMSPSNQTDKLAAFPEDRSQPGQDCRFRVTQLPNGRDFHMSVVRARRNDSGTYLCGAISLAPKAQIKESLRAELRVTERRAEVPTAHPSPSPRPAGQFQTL
resultType: percentage ligand not blocked at 10 µg/ml (%)
Field format: number, assumed %, no unit text.

Input PD1B149 (antibody, human IgG2, kappa, V domains shown, IgG2sigma/kappa; VH 41, VL 50; also called PD1H24/PD1L128) VH: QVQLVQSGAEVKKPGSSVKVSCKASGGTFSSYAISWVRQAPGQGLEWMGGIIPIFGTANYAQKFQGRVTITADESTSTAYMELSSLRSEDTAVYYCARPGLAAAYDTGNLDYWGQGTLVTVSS VL: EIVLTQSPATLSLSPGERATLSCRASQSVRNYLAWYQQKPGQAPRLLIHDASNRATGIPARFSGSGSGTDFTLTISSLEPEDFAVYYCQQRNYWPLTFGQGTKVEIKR , output reported percentage ligand not blocked at 10 µg/ml.
7
